Please provide measured growth for the entries that follow.
System: SK-MEL-5 melanoma
experimental_protocol: NCI-60 one-dose screen, 48 h (100 = growth as untreated, 0 = no growth, -100 = all killed)
condition_description: 10 µM unless noted
Compounds without any hit were thinned out: in the full panel of roughly 83,000, 20% have a hit.
Write the value in % as a bare number.

Entry CC(=O)NCCCS(=O)(=O)O : reported growth = ? 120

Try this compound next: COc1cc(-c2nc3occn3c2-c2ccnc(NCCNS(=O)(=O)c3ccc(Cl)cc3)n2)ccc1F 66.1

Try this compound next: COc1ccc(-c2nc(N/N=C/c3cccc(Br)c3)nc(N3CCOCC3)c2C#N)cc1 72

Try this compound next: CC(C)CN(C(=O)c1ccc(Cl)cc1)c1c(N)n(CC(C)C)c(=O)[nH]c1=O 37.6

Try this compound next: CC(=O)O[C@]1(C(C)=O)CC[C@H]2[C@@H]3C=C(Cl)C4=CC(=O)CC[C@]4(C)[C@H]3CC[C@@]21C 109

Provenance of the data: PubChem BioAssay (NCI)
